Field: viability loss activity score. Provide a value for each of the compounds that follow.
assay: BJeLR cell viability loss, primary screen, luminescence, CellTiterGlo ATP (AID 2275); details: BJeLR fibroblasts viability, 48 h, active compounds read high, HRASV12, hTERT and SV40 LT/ST transformed, concentration not given here;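 also: higher score means fewer live cells and less ATP luminescence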
Out of some 30,000 compounds screened, about 190 (0.63%) were called active. For the sample, actives were picked, then their nearest neighbours and some compounds at random.
Numbers only, in %.

Worked examples follow.
compound: COCCn1cc(C(=O)NC2CCCCCC2)c2c3ccccc3n(C)c2c1=O
unitDescriptor: %
quantitativeReadout: 2.88

compound: CC(C)(C)NC(=S)N1CCn2cccc2C1c1ccccc1F (centres undefined)
unitDescriptor: %
quantitativeReadout: -3.87

compound: C[C@@H]1CN([C@H](C)CO)C(=O)c2cc(NS(=O)(=O)c3cccs3)ccc2O[C@H]1CN(C)Cc1ccncc1
unitDescriptor: %
quantitativeReadout: 1.52

Can you give me viability loss activity score for all of these, one by one?
1. Cc1noc(C)c1NC(=O)Nc1ccc2c(c1)C(=O)N([C@H](C)CO)C[C@H](C)[C@H](CN(C)Cc1ccc(-c3ccccc3)cc1)O2
2. CC1(C)Cc2c(cnn2-c2ccc(F)cc2)-c2nc3ccccc3nc21
3. C[C@@H]1CN([C@H](C)CO)C(=O)c2cc(NS(C)(=O)=O)ccc2O[C@H]1CN(C)C(=O)Nc1cccc2ccccc12
4. CCC(Sc1nc2ccsc2c(=O)n1Cc1ccccn1)C(=O)Nc1cccc(OC)c1 (centres undefined)

-1.86
-0.68
-0.115
-2.12

====

assay: BJeLR cell viability loss, primary screen, luminescence, CellTiterGlo ATP (AID 2275); details: BJeLR fibroblasts viability, 48 h, HRASV12, hTERT and SV40 LT/ST transformed, concentration not given here;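 also: higher score means fewer live cells and less ATP luminescence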
About 190 (0.63%) of roughly 30,000 compounds were called active. Cut-off read from the data, not from the text of the source: active = viability loss activity score above about 50%; inconclusive = no clear call, values can overlap the other calls; inactive = below about 35%. The sample holds actives, similar compounds and a random draw of the others, so the mix is not that of the screen.
Thanks in advance; please answer with one of these: active, inactive

Take a look at these entries with their results.
molecule: CC1C=CCC2C(=O)N(c3cccc(Cl)c3)C(=O)C12 (centres undefined)
labelValue: inactive
--
molecule: COc1cc2c(cc1OC)C1CN3CCc4cc(OC)c(OC)cc4C3CN1CC2 (centres undefined)
labelValue: inactive
--
molecule: CC1CCCCN1C(=O)CSc1nc(-c2ccccc2)cc(C(F)(F)F)n1 (centres undefined)
labelValue: inactive
--
molecule: CC(=O)Oc1ccc(N(C(C)=O)S(=O)(=O)c2ccc(Cl)cc2)cc1
labelValue: inactive
--
molecule: O=C(CCc1nc2sc3c(c2c(=O)[nH]1)CCCC3)NC1CCCC1
labelValue: inactive
--
molecule: N=c1n(CC(=O)c2ccc(Cl)c(Cl)c2)c2ccccc2n1Cc1ccccc1
labelValue: inactive
--
molecule: C[C@@H]1CN([C@H](C)CO)C(=O)c2cc(NS(=O)(=O)c3ccc(Cl)cc3)ccc2O[C@@H]1CN(C)CC1CCCCC1
labelValue: inactive
--
molecule: Cc1ccc(S(=O)(=O)Nc2ccc3c(c2)C(=O)N([C@@H](C)CO)C[C@@H](C)[C@@H](CN(C)S(=O)(=O)c2ccc(C)cc2)O3)cc1
labelValue: inactive

Which outcome was assigned to CC(C)NC(=O)N(C)C[C@H]1Oc2ccc(NC(=O)CCCCCC(=O)Nc3ccccc3N)cc2C(=O)N([C@@H](C)CO)C[C@@H]1C in this test? inactive

Identify the outcome logged in this assay for the molecule shown: COc1ccc(NS(=O)(=O)c2ccc3c(c2)OCC(=O)N3)cc1 inactive

Please state the recorded outcome for this molecule: COC(=O)c1ccccc1Oc1c(F)c(F)nc(N2CCOCC2)c1F inactive
